- target-or-test-system: T1, human claudin 6 (CLDN6) (human, UniProt P56747 1-220)
- T1 construct: also called human CLDN6; hCLDN6
- T1 sequence: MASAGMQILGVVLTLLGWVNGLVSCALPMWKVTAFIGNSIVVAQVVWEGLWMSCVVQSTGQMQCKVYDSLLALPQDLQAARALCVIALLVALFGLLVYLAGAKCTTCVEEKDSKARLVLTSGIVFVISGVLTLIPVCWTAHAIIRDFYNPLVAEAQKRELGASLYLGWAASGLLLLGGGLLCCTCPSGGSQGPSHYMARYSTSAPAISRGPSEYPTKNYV
- run-description: FACS, HEK293T/human CLDN6 cells
# Lookup of reported Top MFI Mean keyed by entry
Output spec: scalar in MFI, unitless text.

Top MFI Mean reported for this binder BG87P-23 (antibody, V domains shown) VH: QIQLVQSGAEVKKPGASVKVSCKASGYSFTDYHINWVRQAPGQRLEWMGWIYPGSGYTKYNEKFKGRVTITRDTSASTAYMELSSLRSEDTAVYYCARSGIYHYVSSYYFDHWGKGTTVTVSS VL: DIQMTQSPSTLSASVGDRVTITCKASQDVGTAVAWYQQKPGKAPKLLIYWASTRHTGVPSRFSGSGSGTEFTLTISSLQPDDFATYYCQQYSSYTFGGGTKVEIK : 148000

Top MFI Mean reported for this binder BG87P-m6 (antibody, V domains shown, PTM removal variant of BG87P-Bz0; constant regions not restated (parent: human IgG1/kappa)) VH: QIQLVQSGAEVKKPGASVKVSCKASGYSFTDYHINWVRQAPGQRLEWMGWIYPGSGYTKYNEKFKVRVTLTVDTSASTAYMELSSLRSEDTAVYFCARSGIYHYVSSYYFQHWGKGTTVTVSS VL: DIQMTQSPSTLSASVGDRVTITCKASQDVGTAVAWYQQKPGKSPKLLIYWASTRHTGVPSRFSGSGSGTEFTLTISSVQPDDFATYFCQQYSSYTFGGGTKVEIK : 118000

Top MFI Mean reported for this binder BG87P-m4 (antibody, V domains shown, Variant of chBG87P with H33A; constant regions not restated (parent: human IgG1/kappa)) VH: QIQLQQSGPELVKPGASVKISCKASGYSFTDYAINWVKQRPGQGLEWIGWIYPGSGYTKYNEKFKVKATLTVDTSSSTAYMHLTSLTSEDSAVYFCARSGIYHYVSSYYFDHWGQGTTLTVSS VL: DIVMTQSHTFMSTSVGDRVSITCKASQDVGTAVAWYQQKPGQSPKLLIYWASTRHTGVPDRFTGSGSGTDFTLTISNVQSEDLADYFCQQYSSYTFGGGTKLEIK : 143000

Top MFI Mean reported for this binder BG87P-m7 (antibody, V domains shown, PTM removal variant of BG87P-Bz0; constant regions not restated (parent: human IgG1/kappa)) VH: QIQLVQSGAEVKKPGASVKVSCKASGYSFTDYHINWVRQAPGQRLEWMGWIYPGSGYTKYNEKFKGRVTLTVDTSASTAYMELSSLRSEDTAVYFCARSGIYHYVSSYYFDHWGKGTTVTVSS VL: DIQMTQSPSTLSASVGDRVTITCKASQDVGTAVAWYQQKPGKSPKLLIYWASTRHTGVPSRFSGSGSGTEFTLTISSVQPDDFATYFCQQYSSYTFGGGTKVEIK : 134000

Top MFI Mean reported for this binder BG87P-Bz8 (antibody, V domains shown) VH: QIQLVQSGAEVKKPGASVKVSCKASGYSFTDYHINWVRQAPGQRLEWMGWIYPGSGYTKYNEKFKVRVTLTVDTSASTAYMELSSLRSEDTAVYFCARSGIYHYVSSYYFDHWGKGTTVTVSS VL: DIQMTQSPSTLSASVGDRVTITCKASQDVGTAVAWYQQKPGKSPKLLIYWASTRHTGVPSRFSGSGSGTEFTLTISSVQPDDFATYYCQQYSSYTFGGGTKVEIK : 131000
